# PROTOCOL_NOTES: Induction of mouse BMDC cell maturation assessed as change in CD80 positive cells incubated for 18 hrs by staining based flow cytometric analysis relative to control; note: test concentration or dose not given here
# Type: functional
READOUT_LABEL: Activity (%)
# unit: % | format: bare number

Req: Report measured Activity; entry is CC(=O)N[C@@H]1[C@@H](O[C@H](C)C(=O)N[C@@H](C)C(=O)N[C@H](CCC(=O)O)C(N)=O)[C@H](O)[C@@H](CO)O[C@H]1O [MURAMYLDIPEPTIDE]
Resp: 13.6

Req: Report measured Activity; entry is `CCCCCCCCCCCCCC(=O)O[C@H](CCCCCCCCCCC)CC(=O)NCCO[C@@H]1O[C@H](CO)[C@@H](OP(=O)(O)O)[C@H](OC(=O)C[C@@H](CCCCCCCCCCC)OC(=O)CCCCCCCCCCCCC)[C@H]1NC(=O)C[C@@H](CCCCCCCCCCC)OC(=O)CCCCCCCCCCCCC.CCN(CC)CC`
Resp: 21.6

Req: Report measured Activity; entry is `CCCCCCCCCCCCCC(=O)O[C@H](CCCCCCCCCCC)CC(=O)NCCO[C@@H]1O[C@H](CN)[C@@H](OP(=O)(O)O)[C@H](OC(=O)C[C@@H](CCCCCCCCCCC)OC(=O)CCCCCCCCCCCCC)[C@H]1NC(=O)C[C@@H](CCCCCCCCCCC)OC(=O)CCCCCCCCCCCCC`
Resp: 15.3

Req: Report measured Activity; entry is `CCCCCCCCCCCCCC(=O)O[C@H](CCCCCCCCCCC)CC(=O)NCCO[C@@H]1O[C@H](CNC(=O)CCc2cn(CCO[C@@H]3O[C@H](CO)[C@@H](O)[C@H](O[C@H](C)C(=O)N[C@H](C)C(=O)N[C@H](CCC(=O)O)C(N)=O)[C@H]3NC(C)=O)nn2)[C@@H](OP(=O)(O)O)[C@H](OC(=O)C[C@@H](CCCCCCCCCCC)OC(=O)CCCCCCCCCCCCC)[C@H]1NC(=O)C[C@@H](CCCCCCCCCCC)OC(=O)CCCCCCCCCCCCC`
Resp: 31.5
